Experiment: recombinant barcode read abundance after kanamycin selection (control-corrected) (log10(CPM+1)); higher = more efficient recombination; sequences stand for … in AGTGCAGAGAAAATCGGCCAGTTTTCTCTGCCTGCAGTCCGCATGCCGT…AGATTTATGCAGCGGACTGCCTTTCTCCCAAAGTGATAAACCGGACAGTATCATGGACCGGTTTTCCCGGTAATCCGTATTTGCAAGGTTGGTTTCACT; site = the 11-nt target
Form field: recombinant barcode read abundance (log10) (one value per entry).
quantity.name: recombinant barcode read abundance (log10)

item_sequence="AAAGGGGCTTGGGTTCTAACCTGTTGCCT (site TTGCATTCTCA)" recorded_result=0.155
item_sequence="TCTTAGACTTGGGTTCTAACCTGTTGCGA (site TCTTAGACTTC)" recorded_result=0.638
item_sequence="TTGGTACCTTGGGTTCTAACCTGTTGCCT (site TTGGTTCCTAG)" recorded_result=0.116
item_sequence="ATTAGGGCTTGGGTTCTAACCTGTTGCCG (site ATTGGGGCTCT)" recorded_result=0.192
item_sequence="ATCCACCCTTGGGTTCTAACCTGTTGCCT (site ATCCAGCCTAG)" recorded_result=0.207

* * *

Form field: recombinant UMI read abundance (log10) (one value per entry).
Assay: recombinant UMI read abundance after kanamycin selection (control-corrected) (log10(CPM+1)); higher = more efficient recombination; extreme values may be limits of the assay; sequences stand for … in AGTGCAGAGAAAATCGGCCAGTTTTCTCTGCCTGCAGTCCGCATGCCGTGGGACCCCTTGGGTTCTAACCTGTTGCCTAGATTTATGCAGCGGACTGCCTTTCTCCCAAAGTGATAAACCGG…AGGTTGGTTTCACT; site = the 11-nt donor
quantity.name: recombinant UMI read abundance (log10)

item_sequence="TGTACACCATGGACCGGTTTTCCCGGTAATCCGTATTTGAA (site TGTACACCTGT)" quantity_name="recombinant UMI read abundance (log10)" recorded_result=0
item_sequence="GGGGCTCCATGGACCGGTTTTCCCGGTAATCCGTATTTGCA (site GGGGCCCCTTG)" quantity_name="recombinant UMI read abundance (log10)" recorded_result=0.407
item_sequence="CACTTTGCATGGACCGGTTTTCCCGGTAATCCGTATTTGGA (site CACTTGGCTTC)" quantity_name="recombinant UMI read abundance (log10)" recorded_result=0.0264
item_sequence="CTGGAAACATGGACCGGTTTTCCCGGTAATCCGTATTTGCA (site CCGGAAACTTG)" quantity_name="recombinant UMI read abundance (log10)" recorded_result=1.93
item_sequence="AGGTGCCCATGGACCGGTTTTCCCGGTAATCCGTATTTGGA (site AGGTGCCCTTC)" quantity_name="recombinant UMI read abundance (log10)" recorded_result=0.00688
item_sequence="GAGCGCACATGGACCGGTTTTCCCGGTAATCCGTATTTGAT (site GAGCCCACTAT)" quantity_name="recombinant UMI read abundance (log10)" recorded_result=0.285
item_sequence="TTTGCGGCATGGACCGGTTTTCCCGGTAATCCGTATTTGCT (site TGTGCGGCTAG)" quantity_name="recombinant UMI read abundance (log10)" recorded_result=0.0128
item_sequence="TGTACACCATGGACCGGTTTTCCCGGTAATCCGTATTTGAT (site TGTACACCTCT)" quantity_name="recombinant UMI read abundance (log10)" recorded_result=0
item_sequence="AGCTCAGCATGGACCGGTTTTCCCGGTAATCCGTATTTGGG (site AGCGCAGCTCC)" quantity_name="recombinant UMI read abundance (log10)" recorded_result=0.0219
item_sequence="TTAGCTGCATGGACCGGTTTTCCCGGTAATCCGTATTTGTG (site TTTGCTGCTCA)" quantity_name="recombinant UMI read abundance (log10)" recorded_result=0.00733
item_sequence="GCGCGAACATGGACCGGTTTTCCCGGTAATCCGTATTTGAC (site GCGCGAACTGT)" quantity_name="recombinant UMI read abundance (log10)" recorded_result=1.77
item_sequence="CAAGCGCCATGGACCGGTTTTCCCGGTAATCCGTATTTGTA (site CAAGCGCCTGA)" quantity_name="recombinant UMI read abundance (log10)" recorded_result=1.01
item_sequence="CAATTCCCATGGACCGGTTTTCCCGGTAATCCGTATTTGCT (site CAAGTCCCTAG)" quantity_name="recombinant UMI read abundance (log10)" recorded_result=1.05
item_sequence="CGTGGAACATGGACCGGTTTTCCCGGTAATCCGTATTTGTT (site CGTGGCACTAA)" quantity_name="recombinant UMI read abundance (log10)" recorded_result=0.0304
item_sequence="CCCAACACATGGACCGGTTTTCCCGGTAATCCGTATTTGTA (site CCCTACACTTA)" quantity_name="recombinant UMI read abundance (log10)" recorded_result=0.00893
item_sequence="AATGTAACATGGACCGGTTTTCCCGGTAATCCGTATTTGGT (site AATGTAACTAA)" quantity_name="recombinant UMI read abundance (log10)" recorded_result=0.557
item_sequence="CTAATCTCATGGACCGGTTTTCCCGGTAATCCGTATTTGAC (site CTAATCTCTGT)" quantity_name="recombinant UMI read abundance (log10)" recorded_result=2.44
item_sequence="AGAAATCCATGGACCGGTTTTCCCGGTAATCCGTATTTGTT (site CGGAATCCTAA)" quantity_name="recombinant UMI read abundance (log10)" recorded_result=0.00278
item_sequence="ACCAGGTCATGGACCGGTTTTCCCGGTAATCCGTATTTGTA (site ACCAGGTCTTA)" quantity_name="recombinant UMI read abundance (log10)" recorded_result=2.54
item_sequence="TCGCTAGCATGGACCGGTTTTCCCGGTAATCCGTATTTGAA (site TTGCTAGCTTT)" quantity_name="recombinant UMI read abundance (log10)" recorded_result=0.0117
item_sequence="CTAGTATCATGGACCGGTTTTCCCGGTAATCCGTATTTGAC (site CTAGTCACTGT)" quantity_name="recombinant UMI read abundance (log10)" recorded_result=0
item_sequence="CGGGAGTCATGGACCGGTTTTCCCGGTAATCCGTATTTGCA (site CGGGAGTCTAG)" quantity_name="recombinant UMI read abundance (log10)" recorded_result=1.74
item_sequence="ATCCAAGCATGGACCGGTTTTCCCGGTAATCCGTATTTGAG (site ATCCAAGCTCC)" quantity_name="recombinant UMI read abundance (log10)" recorded_result=0.0127
item_sequence="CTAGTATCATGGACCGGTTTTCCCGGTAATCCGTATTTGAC (site CTAGTTTCTTT)" quantity_name="recombinant UMI read abundance (log10)" recorded_result=0
item_sequence="AGAGTACCATGGACCGGTTTTCCCGGTAATCCGTATTTGCA (site ACAGTATCTTG)" quantity_name="recombinant UMI read abundance (log10)" recorded_result=1.61
item_sequence="TCCAATTCATGGACCGGTTTTCCCGGTAATCCGTATTTGAC (site TCCAATTCTGG)" quantity_name="recombinant UMI read abundance (log10)" recorded_result=0
item_sequence="GGAGTGGCATGGACCGGTTTTCCCGGTAATCCGTATTTGGT (site GGAGTGACTAC)" quantity_name="recombinant UMI read abundance (log10)" recorded_result=0.976
item_sequence="CGATCACCATGGACCGGTTTTCCCGGTAATCCGTATTTGCT (site CGATCAGCTAG)" quantity_name="recombinant UMI read abundance (log10)" recorded_result=0
item_sequence="TGACGAACATGGACCGGTTTTCCCGGTAATCCGTATTTGGT (site TGACGAACTAC)" quantity_name="recombinant UMI read abundance (log10)" recorded_result=1.16
item_sequence="TTAGGTGCATGGACCGGTTTTCCCGGTAATCCGTATTTGTG (site TTAGGTGCTCA)" quantity_name="recombinant UMI read abundance (log10)" recorded_result=0.831
item_sequence="CGGGAACCATGGACCGGTTTTCCCGGTAATCCGTATTTGAT (site CGGTAACCTAT)" quantity_name="recombinant UMI read abundance (log10)" recorded_result=0
item_sequence="CAGTTAGCATGGACCGGTTTTCCCGGTAATCCGTATTTGTG (site CGGTTAGCTCA)" quantity_name="recombinant UMI read abundance (log10)" recorded_result=0.347
item_sequence="GGGTAGACATGGACCGGTTTTCCCGGTAATCCGTATTTGCC (site GGATAGACTGG)" quantity_name="recombinant UMI read abundance (log10)" recorded_result=2.81
item_sequence="GGCCTTTCATGGACCGGTTTTCCCGGTAATCCGTATTTGTC (site GGCCTTTCTGA)" quantity_name="recombinant UMI read abundance (log10)" recorded_result=1.46
item_sequence="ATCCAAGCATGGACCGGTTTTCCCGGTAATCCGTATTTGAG (site ATCCATGCTCT)" quantity_name="recombinant UMI read abundance (log10)" recorded_result=0.0106
item_sequence="ATGTAGGCATGGACCGGTTTTCCCGGTAATCCGTATTTGCC (site ATGTAGGCTGA)" quantity_name="recombinant UMI read abundance (log10)" recorded_result=1.76

Origin of values: the supplement of paper PMC11208160
